SYSTEM: FGFR3 (UniProt P22607)
Sequence (P22607 whole entry, looked up): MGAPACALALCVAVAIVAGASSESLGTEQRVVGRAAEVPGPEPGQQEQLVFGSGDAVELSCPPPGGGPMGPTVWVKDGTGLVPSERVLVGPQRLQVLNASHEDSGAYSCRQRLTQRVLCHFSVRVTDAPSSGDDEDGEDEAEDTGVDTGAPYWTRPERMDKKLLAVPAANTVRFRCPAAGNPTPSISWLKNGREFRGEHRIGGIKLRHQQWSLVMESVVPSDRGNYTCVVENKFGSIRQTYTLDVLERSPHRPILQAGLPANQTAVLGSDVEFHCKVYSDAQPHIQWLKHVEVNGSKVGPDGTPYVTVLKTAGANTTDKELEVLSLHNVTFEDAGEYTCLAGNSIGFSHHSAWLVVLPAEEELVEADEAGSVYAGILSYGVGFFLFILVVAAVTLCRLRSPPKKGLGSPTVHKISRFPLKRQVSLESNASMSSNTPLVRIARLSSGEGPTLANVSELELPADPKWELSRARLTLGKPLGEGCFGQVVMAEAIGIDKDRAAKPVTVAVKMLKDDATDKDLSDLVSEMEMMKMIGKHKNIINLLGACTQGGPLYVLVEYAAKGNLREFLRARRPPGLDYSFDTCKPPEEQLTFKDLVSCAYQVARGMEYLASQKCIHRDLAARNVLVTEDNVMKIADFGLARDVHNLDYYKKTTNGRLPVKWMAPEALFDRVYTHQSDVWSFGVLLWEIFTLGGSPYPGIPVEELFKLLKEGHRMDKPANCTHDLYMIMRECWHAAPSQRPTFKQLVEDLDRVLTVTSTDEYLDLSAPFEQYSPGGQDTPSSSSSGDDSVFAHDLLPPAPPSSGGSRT
MEASUREMENT DESCRIPTION: phosphorylation enrichment, bacterial display (enrichment ratio); higher = better substrate or ligand; peptides without Tyr show the background
REPORTED ENDPOINT: phosphorylation enrichment
# output: bare number, no unit

# sequence RRRLIYRCQVG [NR2E3_Y81] ; its phosphorylation enrichment = 0.601

# sequence CTTIHYNYMYN [TP53_Y234_C238Y] ; its phosphorylation enrichment = 0.844

# sequence FGSVMYEFVGK [SLC18A1_Y251] ; its phosphorylation enrichment = 1.35

# sequence LSIDRYHAIVF [NPSR1_Y147_YF] ; its phosphorylation enrichment = 1.44

# sequence RQGKDYVGAIP [KDR_Y951] ; its phosphorylation enrichment = 0.409

###

Can you tell me phosphorylation enrichment for the items I'm about to list?
SYSTEM: Jak2 (UniProt O60674)
Sequence (O60674 whole entry, looked up): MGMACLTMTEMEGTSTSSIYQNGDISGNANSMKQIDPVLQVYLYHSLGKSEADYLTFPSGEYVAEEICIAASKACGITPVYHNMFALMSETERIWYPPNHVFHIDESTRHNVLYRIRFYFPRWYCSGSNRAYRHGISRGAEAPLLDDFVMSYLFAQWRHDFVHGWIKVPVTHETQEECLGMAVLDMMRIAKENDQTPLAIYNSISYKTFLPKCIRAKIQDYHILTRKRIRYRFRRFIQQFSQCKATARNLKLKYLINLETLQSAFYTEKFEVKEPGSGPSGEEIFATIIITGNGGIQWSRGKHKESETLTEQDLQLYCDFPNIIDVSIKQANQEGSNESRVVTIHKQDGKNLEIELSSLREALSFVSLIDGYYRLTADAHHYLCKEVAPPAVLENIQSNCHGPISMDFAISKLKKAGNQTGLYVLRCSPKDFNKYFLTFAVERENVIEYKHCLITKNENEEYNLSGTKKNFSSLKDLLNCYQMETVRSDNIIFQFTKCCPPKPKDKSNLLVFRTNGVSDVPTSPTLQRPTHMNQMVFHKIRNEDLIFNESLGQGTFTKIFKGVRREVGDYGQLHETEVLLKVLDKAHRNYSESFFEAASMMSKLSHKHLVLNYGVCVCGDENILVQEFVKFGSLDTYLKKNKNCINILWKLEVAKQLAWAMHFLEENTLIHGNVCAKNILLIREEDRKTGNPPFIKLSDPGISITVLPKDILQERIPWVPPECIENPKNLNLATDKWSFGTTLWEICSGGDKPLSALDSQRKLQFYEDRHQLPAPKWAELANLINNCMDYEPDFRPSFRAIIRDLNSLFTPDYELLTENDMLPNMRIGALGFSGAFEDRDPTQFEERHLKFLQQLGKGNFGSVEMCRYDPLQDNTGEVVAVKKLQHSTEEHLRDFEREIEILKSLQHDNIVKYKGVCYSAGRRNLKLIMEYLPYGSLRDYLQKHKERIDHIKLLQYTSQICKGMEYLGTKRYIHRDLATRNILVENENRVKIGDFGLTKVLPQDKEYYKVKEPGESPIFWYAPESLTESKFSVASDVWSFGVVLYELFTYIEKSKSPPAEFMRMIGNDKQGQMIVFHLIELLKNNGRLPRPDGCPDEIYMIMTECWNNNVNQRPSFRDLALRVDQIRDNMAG
MEASUREMENT DESCRIPTION: phosphorylation enrichment, bacterial display (enrichment ratio); higher = better substrate or ligand; peptides without Tyr show the background
# output: bare number, no unit

# sequence EIVYVYVKKRS [DNAI2_Y7] ; its phosphorylation enrichment = 1.01

# sequence PLEGEYFTLQI [TP53_Y327_D324E] ; its phosphorylation enrichment = 5.5

# sequence SVTCTYSSALN [TP53_Y126_P128S] ; its phosphorylation enrichment = 0.909

# sequence DKPENYRRLDI [VHL_Y175_V170D] ; its phosphorylation enrichment = 0.551

# sequence YKTPIYPYLLP [PLD2_Y578_T577I] ; its phosphorylation enrichment = 1.51

# sequence HNELFYEEAEH [VANGL1_Y345_YF] ; its phosphorylation enrichment = 0.981

# sequence HGEAFYSEVKP [PAK5_Y182_YF] ; its phosphorylation enrichment = 0.609

# sequence FSIDHYLGKEM [G6PD_Y202_R198S_YF] ; its phosphorylation enrichment = 1.16

###

Can you tell me SH2 binding enrichment for the items I'm about to list?
SYSTEM: Grb2 SH2 (UniProt P62993)
Sequence (P62993 whole entry, looked up): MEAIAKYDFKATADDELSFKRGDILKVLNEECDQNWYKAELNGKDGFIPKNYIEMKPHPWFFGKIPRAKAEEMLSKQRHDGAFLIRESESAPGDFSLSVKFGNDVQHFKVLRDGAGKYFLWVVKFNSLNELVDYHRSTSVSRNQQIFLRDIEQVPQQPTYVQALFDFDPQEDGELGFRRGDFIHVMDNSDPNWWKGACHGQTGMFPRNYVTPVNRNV
MEASUREMENT DESCRIPTION: SH2 binding enrichment of the phosphorylated peptide, bacterial display (enrichment ratio); higher = better substrate or ligand; peptides without Tyr show the background
# output: bare number, no unit

# sequence SSYSRYIMMPN [LEF1_Y114_G113R] ; its SH2 binding enrichment = 0.665

# sequence NIEPVYLNMLL [ATR_Y317] ; its SH2 binding enrichment = 0.836

# sequence DASENYFVMDS [TMEM240_Y77_T80M] ; its SH2 binding enrichment = 1.01

# sequence WPQKLYNNFVN [MYO5C_Y526_L522P] ; its SH2 binding enrichment = 1.11

# sequence QRKRAYVEIEF [MAK16_Y282_YF] ; its SH2 binding enrichment = 1.55

# sequence TTPGPHRSIFF [MPG_Y71_Y71H_YF] ; its SH2 binding enrichment = 0.895

# sequence AKIDGYITSFR ; its SH2 binding enrichment = 1.02

# sequence RALCHYYKLNI [ETV6_Y401_R399C] ; its SH2 binding enrichment = 1.74

# sequence NSGFFYKTAEE [CCT6B_Y250] ; its SH2 binding enrichment = 0.734

###

Tested on: c-Src
MEASUREMENT DESCRIPTION: phosphorylation enrichment, bacterial display (enrichment ratio); higher = better substrate or ligand; peptides without Tyr show the background
Can you tell me phosphorylation enrichment for the items I'm about to list?
# output: bare number, no unit

# sequence KVGNEYVTKGQ [MYH7_Y410] ; its phosphorylation enrichment = 0.339

# sequence EMTAEYACTRK [ACAD9_Y325] ; its phosphorylation enrichment = 0.412

# sequence VTSLKYSTPPF [BRIP1_Y916_S919P_YF] ; its phosphorylation enrichment = 0.436

# sequence EYKDAYTFAAD [BRDT_Y335_K336T] ; its phosphorylation enrichment = 1.29

# sequence RRRLIYRCQVG [NR2E3_Y81] ; its phosphorylation enrichment = 0.556

# sequence DLFRLYICVKE [ARID1B_Y1091_V1092I] ; its phosphorylation enrichment = 0.499

# sequence PLFSKYWPNHI [GREB1L_Y1560_R1558S_YF] ; its phosphorylation enrichment = 1.38

# sequence PVGDAYKKKGL [NMNAT1_Y55] ; its phosphorylation enrichment = 0.493

# sequence KPEKTYGLRKE [CEP43_Y267] ; its phosphorylation enrichment = 0.43

# sequence AAVDTYCRHNF [HLA-DRB1_Y107_YF] ; its phosphorylation enrichment = 0.548

# sequence EEGESYVCSSD [DCX_Y125] ; its phosphorylation enrichment = 0.603

# sequence RFLERYIYNPE [HLA-DPB1_Y57_R61P] ; its phosphorylation enrichment = 3.08

# sequence SVTCTHSPALN [TP53_Y126_Y126H] ; its phosphorylation enrichment = 0.459

# sequence VDYQPYRKHKY [TEX37_Y28] ; its phosphorylation enrichment = 0.35

# sequence TIMTDYNPNYC [ALK_Y1092] ; its phosphorylation enrichment = 0.552

# sequence HFVDEYDLTIE [KRAS_Y32_P34L] ; its phosphorylation enrichment = 0.922

# sequence QFLMKYVWSAS [ABCD1_Y337] ; its phosphorylation enrichment = 0.559

# sequence FLAVGYHKTHI [IDS_Y225_P228T] ; its phosphorylation enrichment = 0.4

# sequence LNYNEYFRDLN [HPRT1_Y198_D194N] ; its phosphorylation enrichment = 0.518

# sequence ERDYTYDELLN [EIF2S2_Y176_E177D] ; its phosphorylation enrichment = 0.661

# sequence TLSGIYQFIIA [FOXL2_Y81_YF] ; its phosphorylation enrichment = 5.96

# sequence DDDPEYRKFLE [UPF3B_Y160] ; its phosphorylation enrichment = 0.483

# sequence ISISPYPAILH [IFT80_Y588_T586S] ; its phosphorylation enrichment = 0.358

# sequence ASLEAYCKHKF [RXRA_Y403_YF] ; its phosphorylation enrichment = 0.497

# sequence KNKNRSKNILP [PTPN11_Y279_Y279S] ; its phosphorylation enrichment = 0.564

# sequence VDEVLYEDSST [MTHFS_Y197] ; its phosphorylation enrichment = 0.615

# sequence RALCHYYKLNI [ETV6_Y401_R399C] ; its phosphorylation enrichment = 2.63

# sequence KILPEYLSNWT [AIFM1_Y347] ; its phosphorylation enrichment = 0.503

# sequence ENFSEYQEIAV [HEMGN_Y150] ; its phosphorylation enrichment = 0.616

# sequence VAVVQYSGTGQ [COL6A1_Y878] ; its phosphorylation enrichment = 0.451

# sequence FEKNVYVDKNL [PTCHD3_Y688] ; its phosphorylation enrichment = 0.446

# sequence KIEGVYARDET [RPL35A_Y34] ; its phosphorylation enrichment = 0.56

# sequence ASMAKYYASGI [ACADSB_Y372_E376G] ; its phosphorylation enrichment = 0.444

# sequence MPPHIYAITDT [MYH9_Y151] ; its phosphorylation enrichment = 2.26

# sequence NGEDLYAGSTD [XRCC1_Y515_P514L] ; its phosphorylation enrichment = 0.807

# sequence SVQVEYMKTIL [GLYATL2_Y127_D126E] ; its phosphorylation enrichment = 0.376

# sequence CNSFQYGGGGG [NPPA_Y151_R150Q] ; its phosphorylation enrichment = 0.532

# sequence LENSTYQYIRV [CRB1_Y760] ; its phosphorylation enrichment = 3.07

# sequence PQGVRYIYTID [DCX_Y103] ; its phosphorylation enrichment = 4.09

# sequence LLGFLYFFVCS [SLC34A2_Y109] ; its phosphorylation enrichment = 2.1

# sequence RTEAQYRFIFM [PTPN11_Y511_Q506R_YF] ; its phosphorylation enrichment = 0.445

# sequence HICTAYELVLA [DHCR24_Y190] ; its phosphorylation enrichment = 2.77

# sequence FGSVMYEFVGK [SLC18A1_Y251] ; its phosphorylation enrichment = 3.48

# sequence GEIQEYGAPLD [ABCC1_Y1508_S1512L] ; its phosphorylation enrichment = 0.485

# sequence DKPENYRRLDI [VHL_Y175_V170D] ; its phosphorylation enrichment = 0.418

# sequence ICRWVYPLTPE [EIF2B5_Y319_R315C] ; its phosphorylation enrichment = 0.578

###

Test system: Fer (mouse)
MEASUREMENT DESCRIPTION: phosphorylation enrichment, bacterial display (enrichment ratio); higher = better substrate or ligand; peptides without Tyr show the background
Our labelling divides records by phosphorylation enrichment into ranges: low: < 0.4; middle: ≥ 0.4 and < 0.5; high: ≥ 0.5

Just checking, what class would you give ELPEKYSQNIF [PKP2_Y626_YF] here?
middle

Just checking, what class would you give RQGKDYVGAIP [KDR_Y951] here?
low

Just checking, what class would you give ALECLYRREKR [TEKT5_Y195_H196R] here?
middle

Just checking, what class would you give TLSGIYQFIIA [FOXL2_Y81_YF] here?
high

Just checking, what class would you give SHLEDYPFDAE [AKR1B10_Y310_N313D] here?
middle

Just checking, what class would you give SFLFRYADDSF [RAB3C_Y50] here?
middle

Just checking, what class would you give FTGDIYSSSNL [LZTR1_Y141_N143S_YF] here?
high

Just checking, what class would you give KKMKRYHVGKV [HARS2_Y151] here?
low

Just checking, what class would you give YETSHYPASPD [CTNND2_Y1217] here?
middle
